Target: CYP125 (Mycobacterium tuberculosis)
Sequence (P9WPP1 whole entry): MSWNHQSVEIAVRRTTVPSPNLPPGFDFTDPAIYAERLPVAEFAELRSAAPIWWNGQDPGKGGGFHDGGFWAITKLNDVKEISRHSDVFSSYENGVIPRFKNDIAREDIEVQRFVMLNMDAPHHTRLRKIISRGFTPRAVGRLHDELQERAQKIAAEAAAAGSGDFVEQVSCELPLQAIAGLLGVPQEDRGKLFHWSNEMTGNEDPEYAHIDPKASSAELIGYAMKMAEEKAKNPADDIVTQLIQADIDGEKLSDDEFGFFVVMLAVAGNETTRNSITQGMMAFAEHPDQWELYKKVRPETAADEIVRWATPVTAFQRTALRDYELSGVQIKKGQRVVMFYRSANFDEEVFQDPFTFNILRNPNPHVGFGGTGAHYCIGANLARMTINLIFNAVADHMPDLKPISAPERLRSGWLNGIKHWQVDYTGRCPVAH
Experiment: LC-MS substrate turnover assay (cholest-4-en-3-one)
Assay type: biochemical
Conditions: estimated by Cheng-Prusoff, cholest-4-en-3-one Km CYP125 = 2.1 µM; read-out: CYP125A1 KI
pKi: −log10 of the molar value.
// no (0) strictly below 6 in pKi; yes (1) otherwise

{"columns": ["compound", "classLabel"],
 "data": [
  ["CS(=O)(=O)c1cccc(CNc2ccc(Cc3ccncc3)cc2)c1 [5p]", "no (0)"],
  ["CN(c1ccncc1)c1ccc(NC(=O)c2ccccc2)cc1 [5c]", "no (0)"],
  ["O=S(=O)(Nc1ccc(Cc2ccncc2)cc1)c1ccc(OC(F)(F)F)cc1 [5k]", "yes (1)"],
  ["O=S(=O)(Nc1ccc(Cc2ccncc2)cc1)c1ccccc1 [5j]", "yes (1)"],
  ["O=C(Nc1ccc(Cc2ccncc2)cc1)[C@H](Cc1c[nH]c2ccccc12)NCc1ccccc1 [5d]", "yes (1)"],
  ["COc1ccc(CNc2ccc(N(C)c3ccncc3)cc2)cc1 [5n]", "no (0)"],
  ["O=C(NCc1ccc2[nH]ccc2c1)c1cccc(Cc2ccncc2)c1 [5e]", "no (0)"]
]}
